# area under concentration-response curve annotations
# Tested on: NCI-H295R
# assaySummary: area under concentration-response curve (viability) (AUC (a.u.)); higher = less active
# conditions: 48 h
propertyLabel: area under concentration-response curve

- CCCCCCCCCCCC(CC1OC(=O)C1CCCCCC)OC(=O)C(CC(C)C)NC=O (configuration not stated): 336
- CCCc1nc2c(C)cc(-c3nc4ccccc4n3C)cc2n1Cc1ccc(-c2ccccc2C(=O)O)cc1: 599
- O=C(O)Cn1nnc(-c2cc(N3CCC(Oc4cc(F)ccc4Br)CC3)no2)n1: 515
- CN(C)C/C=C/C(=O)Nc1cc2c(Nc3ccc(F)c(Cl)c3)ncnc2cc1O[C@H]1CCOC1: 232
- CONC(=O)Nc1ccc(-c2sc3c(c2CN(C)C)c(=O)n(-c2ccc(OC)nn2)c(=O)n3Cc2c(F)cccc2F)cc1: 458
- N[S+](=O)([O-])c1cc(Cl)c(Cl)c([S+](N)(=O)[O-])c1: 524
- COc1cc2c(cc1-c1c(C)noc1C)ncc1[nH]c(=O)n([C@H](C)c3ccccn3)c12: 459
- Cc1cc(-c2cnn3c(NC[C@H]4C[C@@](C)(O)C4)cc(Oc4cccnc4)nc23)ccc1C(=O)NC1CC1: 659
- NC1=NC(=C(C#N)C(=N1)N)N[C@@H](C2CC2)\C3=N\C4=C(C(=CC=C4F)Cl)C(=O)N3C5=CC=CN=C5: 526
- c1ccc(-c2ccc(CNc3nc(-c4ccccn4)nnc3-c3ccccc3)cc2)cc1: 461
- COc1nc(N)nc2c1ncn2C1OC(CO)C(O)C1O (configuration not stated): 469
- NC/1=N/C(=O)C/2=C(/NCC3CN(CN23)C4=CC=C(C=C4)C(=O)N[C@@H](CCC(O)=O)C(O)=O)N1 (some centres not stated): 526
- CCC(=O)O[C@@]1([C@@H](C)C[C@H]2[C@@H]3CCC/4=C/C(=O)/C=C\[C@]4(C)[C@@]3(F)[C@@H](O)C[C@]12C)C(=O)CCl: 503
- CSCC[C@@H](NC(=O)[C@@H](Cc1ccccc1)NC(=O)CNC(=O)CNC(=O)[C@@H](N)Cc1ccc(O)cc1)C(=O)O: 566
- COCCOc1ccc(N2CCN(CCn3ncc4c3nc(N)n3nc(-c5ccco5)nc43)CC2)cc1: 530
- CC(=O)[C@H]1CC[C@H]2[C@@H]3C/C=C4/C[C@@H](O)CC[C@]4(C)[C@H]3CC[C@]12C: 530
- CC[C@@]1(O)C[C@H](O[C@H]2C[C@H](N(C)C)[C@H](O[C@H]3C[C@H](O)[C@H](O[C@H]4CCC(=O)[C@H](C)O4)[C@H](C)O3)[C@H](C)O2)c2c(cc3c(c2O)C(=O)c2c(O)cccc2C3=O)[C@H]1C(=O)OC: 523
- COc1nc(-c2ccc3c(c2)OCO3)n(-c2ccc(NC(=O)CSc3ccccc3)cc2)n1: 573
- N[S+]([O-])(=O)C1=CC=C(NC/2=C/C(=O)C3=CC=CC=C3C2=O)C=C1: 403
- Oc1ccc(-c2ccc(-c3cc(Nc4cccc(CNC5CC5)c4)[nH]n3)cc2)c(O)c1: 531
- O=C(O)CCCCN(CCc1ccccc1OCc1ccc(CCc2ccccc2)cc1)Cc1ccc(C(=O)O)cc1: 495
- NCCCCNCCCN: 107
- COc1ccc(-c2ccc3c(N4CCOCC4)nc(N4C[C@@H](C)O[C@@H](C)C4)nc3n2)cc1CO: 468
- C=C1CC[C@@H]2[C@](C)(CO)[C@H](O)CC[C@@]2(C)[C@@H]1C/C=C1/C(=O)OC[C@H]1O: 372
- Cc1cc(C)c([S+](=O)([O-])N(CCc2cccc(Br)c2)Cc2ccc(-c3cccc([S+](C)(=O)[O-])c3)cc2)c(C)c1: 442
- C[C@H]1C[C@@H]2[C@H](CC[C@@]3(C)[C@H]2CC[C@]3(OC(C)=O)C(C)=O)[C@@]\4(C)CCC(=O)\C=C14: 557
- CN(CCO)C1CCN(c2ccc(Nc3ncc4c5ccnc(F)c5n(C5CCCC5)c4n3)nc2)CC1: 579
- C[C@]12CC[C@H]3[C@@H](C\C=C/4C[C@@H](O)CC[C@]34C)[C@@H]1CCC2=O: 479
- NC(=O)c1cccc(N)c1: 595
- CN1C/C=C/CCOc2cccc(c2)-c2ccnc(n2)Nc2cccc(c2)C1: 164
- O=C(NCCCNc1nc(Nc2cccc(CN3CCOCC3)c2)ncc1C1CC1)C1CCC1: 220
- Cn1cc(-c2ccc3c(c2)CCN3C(=O)Cc2cccc(C(F)(F)F)c2)c2c(N)ncnc21: 577

###

# System: CU-ACC2
# assaySummary: AC50 viability; higher = less potent
# conditions: 48 h
I'd appreciate it if you marked entries yes (1) when AC50 viability is lower than 0.7 µM and no (0) when it is not.

- CN(C)Cc1c(C(=O)NCCOc2ccc(C(=O)NO)cc2)oc2ccccc12: no (0)
- OCCNC1CCCc2c1[nH]c1ccc(-c3ccccc3)cc21 (configuration not stated): no (0)
- CC[C@@H](C)Nc1cc(C(=O)NC2CC3CC[C@@H](C2)N3c2ccc(C(=O)C3CC3)cn2)c(C)cc1C(N)=O (some centres not stated): yes (1)
- COc1c(Cl)cc2c([nH]c3cnccc32)c1NC(=O)c1cccnc1C: no (0)
- C=CC(=O)Nc1ccc2ncnc(Nc3ccc(OCc4cccc(F)c4)c(Cl)c3)c2c1: no (0)
- CC(C)C[C@H](NC(=O)CNC(=O)c1cc(Cl)ccc1Cl)B1OC(=O)CC(CC(=O)O)(C(=O)O)O1 (some centres not stated): yes (1)
- Fc1cc(-c2cccc3ncc(-c4cnn(C5CCNCC5)c4)nc23)cc(F)c1CN1CCOCC1: no (0)
- CC[S+](=O)([O-])N1CC(CC#N)(n2cc(-c3ncnc4[nH]ccc34)cn2)C1: no (0)
- CS[C@H]1SC[C@@H]2C(=O)N(C)[C@H](C(C)C)C(=O)OC[C@H](NC(=O)c3cnc4ccccc4n3)C(=O)N[C@H](C)C(=O)N(C)[C@H]1C(=O)N(C)[C@H](C(C)C)C(=O)OC[C@H](NC(=O)c1cnc3ccccc3n1)C(=O)N[C@H](C)C(=O)N2C: yes (1)
- CC(=O)O[C@H]1C(=O)[C@]2(C)[C@@H](O)C[C@H]3OC[C@@]3(OC(C)=O)C2[C@H](OC(=O)C4=CC=CC=C4)[C@]5(O)C[C@H](OC(=O)[C@H](O)[C@@H](NC(=O)C6=CC=CC=C6)C7=CC=CC=C7)\C(=C1/C5(C)C)C (some centres not stated): no (0)
- NC(=O)c1ccc2[nH]ccc2c1: yes (1)
- CCCCc1nc2cc(/C=C/C(=O)NO)ccc2n1CCN(CC)CC: no (0)
- C[N]1C=C(C=N1)C2=CC=C3N=CC\4=C(N(C(=O)\C=C4)C5=CC6=C(CCN6C(=O)C=C)C=C5)C3=C2: no (0)
- CNC(=O)c1nn(C)c2c1C(C)(C)Cc1cnc(Nc3ccc(N4CCN(C)CC4)cc3)nc1-2: no (0)
- CNCCn1c(=O)c2cc(OC)c(OC)cc2c2cnc3cc4c(cc3c21)OCO4: yes (1)
- CC(C)(N)c1ccc(-c2nc3ccccc3nc2-c2ccccc2)cc1: yes (1)
- Nc1nc(Nc2ccc([S+](N)(=O)[O-])cc2)nn1C(=O)c1c(F)cccc1F: no (0)

###

# maps each entry to its area under concentration-response curve
# Test system: CU-ACC1
# assaySummary: area under concentration-response curve (viability) (AUC (a.u.)); higher = less active
# conditions: 48 h
propertyLabel: area under concentration-response curve

• OC1=CC=C(C=C1)C/2=C/C3=C(OC2)C=C(O)C=C3 = 436
• CC[C@@]1(O)C[C@H](O[C@H]2C[C@H](N(C)C)[C@H](O[C@H]3C[C@H](O)[C@H](O[C@H]4CCC(=O)[C@H](C)O4)[C@H](C)O3)[C@H](C)O2)c2c(cc3c(c2O)C(=O)c2c(O)cccc2C3=O)[C@H]1C(=O)OC = 453
• Cc1cc(/C=c2/sc3nc4ccccc4n3c2=O)c(C)n1-c1ccccc1 = 569
• O=C(/C=C/c1cccc([S+](=O)([O-])Nc2ccccc2)c1)NO = 362
• CCOC(=O)C/1=C(C)/NC(=S)NC1C2=CC=CC(=C2)O (stereo not given) = 498
• Nc1ncnc2c1c(COc1cccc(Cl)c1)nn2C1CCOCC1 = 461
• COc1ccc(-c2cc(C(O)C3CCCCN3)c3ccccc3n2)cc1 (stereo not given) = 432
• CC[C@]1(O)C[C@H]2CN(CCC3=C([NH]C4=C3C=CC=C4)[C@@](C2)(C(=O)OC)C5=CC6=C(C=C5OC)N(C=O)[C@H]7[C@](O)([C@H](OC(C)=O)[C@]8(CC)\C=C/CN9CC[C@]67[C@H]89)C(=O)OC)C1 = 504
• CC(=O)N1CCN(CCOC2=CC=C(C=C2)C3CCN(CC3)/C4=N/[N]5C(=NN=C5C(F)(F)F)CC4)CC1 = 430
• OC[C@H]1O[C@H](C[C@@H]1O)N2\C=C(F)/C(=O)NC2=O = 516
• CC[C@H](CC#N)OC(=O)N[C@@H](C)c1cccc(NC(=O)Nc2ccc(-c3cnco3)c(OC)c2)c1 = 456
• Cc1c(Cl)cccc1[S+](=O)([O-])Nc1nc(CCN2CCOCC2=O)cs1 = 483
• CCC(C)CCCCC(=O)N[C@@H](CCN)C(=O)NC(C(=O)N[C@H](CCN)C(=O)N[C@@H]1CCNC(=O)C([C@@H](C)O)NC(=O)[C@@H](CCN)NC(=O)[C@@H](CCN)NC(=O)[C@@H](CC(C)C)NC(=O)[C@H](Cc2ccccc2)NC(=O)[C@H](CCN)NC1=O)[C@@H](C)O (stereo not given in full) = 505
• COc1cc(N2CCN(C)CC2)ccc1Nc1nccc(-c2cn(C)c3cnccc23)n1 = 451
• CC(C)N(C[C@H]1O[C@@H](n2cnc3c(N)ncnc32)[C@H](O)[C@@H]1O)[C@H]1C[C@@H](CCc2nc3cc(C(C)(C)C)ccc3[nH]2)C1 = 543
